For each of the compounds below, state its GI50.
The reply should contain only the number, in nM.

State GI50 (K-562 cells) of COc1cc(N2C(=O)c3nc(C4CCN(C)CC4)n(C(C)C)c3C2c2ccc(Cl)cc2)cc2c1nnn2C (centres unmarked) . 596

State GI50 (K-562 cells) of Cc1cc(N2C(=O)c3c(nc(C)n3C3CC3)C2c2ccc(Cl)cc2)cn2c(C)nnc12 (centres unmarked) . 102

State GI50 (K-562 cells) of `COc1ncccc1-c1nc2c(n1C(C)C)C(=O)N(c1cc(C)c(=O)n(C)c1)[C@@H]2c1ccc(Cl)cc1` . 126

State GI50 (K-562 cells) of Cc1cc(N2C(=O)c3nc(C4CCN(CC(C)(C)C)CC4)n(C(C)C)c3C2c2ccc(Cl)cc2)cn2c(C)nnc12 (centres unmarked) . 53.4

State GI50 (K-562 cells) of Cc1cc(N2C(=O)c3nc(C4=CCN(C)CC4)n(C4COC4)c3C2c2ccc(Cl)cc2)cc2c1nnn2C (centres unmarked) . 351

State GI50 (K-562 cells) of COc1cc(N2C(=O)c3nc(C4=CCOCC4)n(C(C)C)c3C2c2ccc(Cl)cc2)cc2c1nnn2C (centres unmarked) . 280

State GI50 (K-562 cells) of Cc1cc(N2C(=O)c3nc(C4=CCN(C)CC4)n(C(C)C)c3C2c2ccc(Cl)cc2)cc2c1nnn2C (centres unmarked) . 49.6

State GI50 (K-562 cells) of COc1cc(N2C(=O)c3nc(C4=CCCN(C)C4)n(C(C)C)c3C2c2ccc(Cl)cc2)cc2c1nnn2C (centres unmarked) . 391

State GI50 (K-562 cells) of COc1ncccc1-c1nc2c([nH]1)C(c1ccc(Cl)cc1)N(c1cc(C)c3nnn(C)c3n1)C2=O (centres unmarked) . 53.3

State GI50 (K-562 cells) of `COc1ncccc1-c1nc2c([nH]1)[C@@H](c1ccc(Cl)cc1)N(c1cc(C)c(=O)n(C)c1)C2=O` . 122

State GI50 (K-562 cells) of COc1ccc(-c2nc3c(n2C(C)C)C(c2ccc(Cl)cc2)N(c2cc(C)c4onc(C)c4c2)C3=O)cn1 (centres unmarked) . 946

State GI50 (K-562 cells) of Cc1cc(N2C(=O)c3nc(C4=CCNCC4)n(C(C)C)c3C2c2ccc(Cl)cc2)cn2c(C)nnc12 (centres unmarked) . 2040

State GI50 (K-562 cells) of COc1ncccc1-c1nc2c(n1C(C)C)C(c1ccc(Cl)cc1)N(c1cc(C)c3nnc(C(F)F)n3n1)C2=O (centres unmarked) . 69.5

State GI50 (K-562 cells) of Cc1cc(N2C(=O)c3nc(C4=CCOCC4)[nH]c3C2c2ccc(Cl)cc2)cn(C)c1=O (centres unmarked) . 610

State GI50 (K-562 cells) of `Cc1cc(N2C(=O)c3nc(C)n(C(C)C)c3[C@H]2c2ccc(Cl)cc2)nn2c(C)nnc12` . 30.6

State GI50 (K-562 cells) of COc1ncccc1-c1nc2c(n1C(C)C)C(c1ccc(Cl)cc1)N(c1cc(C)c3nnn(C)c3c1)C2=O (racemic) . 21.5

State GI50 (K-562 cells) of `Cc1cc(N2C(=O)c3nc(C)n(C(C)C)c3[C@H]2c2ccc(Cl)cc2)cc2c1nnn2C` . 52

State GI50 (K-562 cells) of COc1ccc(-c2nc3c(n2C(C)C)C(c2ccc(Cl)cc2)N(c2cc(C)c4nnn(C)c4c2)C3=O)cn1 (centres unmarked) . 105

State GI50 (K-562 cells) of `Cc1cc(N2C(=O)c3nc(C4=CCOCC4)[nH]c3[C@H]2c2ccc(Cl)cc2)nc2c1nnn2C` . 47.9

State GI50 (K-562 cells) of Cc1cc(N2C(=O)c3nc(C4=CCCN(C)C4)n(C(C)C)c3C2c2ccc(Cl)cc2)cn2c(C)nnc12 (centres unmarked) . 1040

State GI50 (K-562 cells) of Cc1cc(N2C(=O)c3nc(C4CCNCC4)n(C(C)C)c3C2c2ccc(Cl)cc2)cn2c(C)nnc12 (centres unmarked) . 8650

State GI50 (K-562 cells) of Cc1cc(N2C(=O)c3nc(C4CCOCC4)n(C(C)C)c3C2c2ccc(Cl)cc2)nn2c(C)nnc12 (centres unmarked) . 15.5

State GI50 (K-562 cells) of COc1cc(N2C(=O)c3nc(C4=CCOCC4)n(C(C)C)c3C2c2ccc(Cl)cc2)cn2c(C)nnc12 (centres unmarked) . 7990

State GI50 (K-562 cells) of COc1ccc(-c2nc3c(n2C(C)C)C(c2ccc(Cl)cc2)N(c2cc(C)c4nnn(C)c4n2)C3=O)cn1 (centres unmarked) . 37.2

State GI50 (K-562 cells) of Cc1cc(N2C(=O)c3nc(C4=CCOCC4)[nH]c3C2c2ccc(Cl)cc2)cn2c(C)nnc12 (centres unmarked) . 330

State GI50 (K-562 cells) of Cc1cc(N2C(=O)c3nc(C4=CCOCC4)n(C(C)C)c3C2c2ccc(Cl)cc2)nn2c(C)nnc12 (centres unmarked) . 42.9

State GI50 (K-562 cells) of COc1ccc(-c2nc3c(n2C)C(c2ccc(Cl)cc2)N(c2cc(C)c(=O)n(C)c2)C3=O)cn1 (centres unmarked) . 309

State GI50 (K-562 cells) of COc1ccc(-c2nc3c([nH]2)C(c2ccc(Cl)cc2)N(c2cc(C)c4nnc(C)n4c2)C3=O)cn1 (centres unmarked) . 207

State GI50 (K-562 cells) of COc1ncccc1-c1nc2c(n1C(C)C)C(c1ccc(Cl)cc1)N(c1cc(C)c3nnc(C(F)F)n3c1)C2=O (centres unmarked) . 51.8
